pIC50 for assorted molecules
system under test: α-chymotrypsin (Bos taurus)
A value of pIC50 is the negative decimal logarithm of a concentration given in moles per litre.

Recorded pIC50, per entry:
O=c1oc(-c2cccc(C(F)(F)F)c2)ns1 [HT1086]: 4.32
COc1cccc(-c2nsc(=O)o2)c1 [HT1054]: 5.66
COc1cc(OC)cc(-c2nsc(=O)o2)c1 [HT1147]: 4.08
O=c1oc(-c2cc([N+](=O)[O-])cs2)ns1 [HT1016]: 5.23
O=c1oc(-c2ccccc2)ns1 [HT1146]: 5.00

Now for the molecule whose pIC50 we want.
Name the recorded pIC50 for O=c1oc(-c2cccc([N+](=O)[O-])c2)ns1 [HT1042] .
5.50

----------
System: Mtb H37Rv
procedure summary: Mycobactericidal activity against Mtb (CFU)
Format: cell-based, Mycobacterium tuberculosis
details: Mycobacterium tuberculosis, H37RV, 96 h; read-out: Mtb killing (50 μM)
log reduction at 50 µM for assorted compounds
Form field (numeric): enter value without unit.

Recorded log reduction at 50 µM, per entry:
O=c1oc(-c2ccc([N+](=O)[O-])cc2)ns1: 1.7
O=c1oc(-c2cc([N+](=O)[O-])cs2)ns1: 2.2
O=c1oc(-c2cccc([N+](=O)[O-])c2)ns1: 1.7
Cc1cccc(-c2nsc(=O)o2)c1: 1.7
O=c1oc(-c2ccco2)ns1: 2
COc1cccc(-c2nsc(=O)o2)c1: 2

Name the recorded log reduction at 50 µM for O=c1oc(-c2cccc(F)c2)ns1 .
2.2

Name the recorded log reduction at 50 µM for Cc1ccc(-c2nsc(=O)o2)s1 .
2

Name the recorded log reduction at 50 µM for O=c1oc(-c2ccccn2)ns1 .
1.8

----------
system under test: Mtb PrcAB-OG (Mycobacterium tuberculosis, UniProt P9WHT9)
Construct: made in house; host or cells: E. coli
Sequence (P9WHT9 58-291): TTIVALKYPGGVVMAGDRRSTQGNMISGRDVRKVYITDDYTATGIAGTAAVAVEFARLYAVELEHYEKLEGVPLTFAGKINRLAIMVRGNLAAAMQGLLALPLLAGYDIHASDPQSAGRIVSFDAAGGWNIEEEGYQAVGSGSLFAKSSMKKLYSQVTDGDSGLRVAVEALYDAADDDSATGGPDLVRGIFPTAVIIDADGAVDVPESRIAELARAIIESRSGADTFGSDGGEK
procedure summary: biochemical
Assay type: biochemical
details: Table 1; read-out: kobs/[I] Mtb-OG
endpoint name: kinact/KI (M⁻¹ s⁻¹)
State just the number; it will be interpreted in M⁻¹ s⁻¹.

Recorded kinact/KI, per entry:
Cc1sc(-c2nsc(=O)o2)cc1[N+](=O)[O-] [HT1171]: 3490
O=c1oc(-c2cc([N+](=O)[O-])cs2)ns1 [HT1016]: 732
O=c1oc(-c2ccccc2)ns1 [HT1146]: 409
O=c1oc(-c2cccc(C(F)(F)F)c2)ns1 [HT1086]: 155
Cc1ccc(-c2nsc(=O)o2)s1 [HT1044]: 1070
Cc1ccc(-c2nsc(=O)o2)cc1 [HT1117]: 433

Name the recorded kinact/KI for COc1cc(OC)cc(-c2nsc(=O)o2)c1 [HT1147] .
45.8

Name the recorded kinact/KI for O=c1oc(-c2ccco2)ns1 [HT1113] .
435

Name the recorded kinact/KI for CSc1sc(C)cc1-c1nsc(=O)o1 [GL5] .
376

----------
system under test: human 20S-β5 (Hu20S PA28) (Homo sapiens)
procedure summary: Kinetics of inhibition of human 20S proteasome β5 site in presence of PA28
Assay type: biochemical
details: read-out: kobs/[I] Hu20S PA28
kinact/KI for assorted compounds

Recorded kinact/KI, per entry:
O=c1oc(-c2cccc(C(F)(F)F)c2)ns1: 0.4 M⁻¹ s⁻¹
O=c1oc(-c2cccc([N+](=O)[O-])c2)ns1: 10.3 M⁻¹ s⁻¹
Cc1ccc(-c2nsc(=O)o2)cc1: 53.4 M⁻¹ s⁻¹
O=c1oc(-c2cccc(F)c2)ns1: 31.3 M⁻¹ s⁻¹
Cc1cccc(-c2nsc(=O)o2)c1: 11.3 M⁻¹ s⁻¹

Name the recorded kinact/KI for O=c1oc(-c2ccc([N+](=O)[O-])cc2)ns1 .
12.9 M⁻¹ s⁻¹

Name the recorded kinact/KI for O=c1oc(-c2ccccn2)ns1 .
0.2 M⁻¹ s⁻¹

Name the recorded kinact/KI for CSc1sc(C)cc1-c1nsc(=O)o1 .
0.4 M⁻¹ s⁻¹

Name the recorded kinact/KI for O=c1oc(-c2ccco2)ns1 .
10.1 M⁻¹ s⁻¹

Name the recorded kinact/KI for O=c1oc(-c2ccccc2)ns1 .
31.3 M⁻¹ s⁻¹

Name the recorded kinact/KI for COc1cccc(-c2nsc(=O)o2)c1 .
14.8 M⁻¹ s⁻¹

Name the recorded kinact/KI for O=c1oc(-c2cc([N+](=O)[O-])cs2)ns1 .
12.3 M⁻¹ s⁻¹

Name the recorded kinact/KI for Cc1ccc(-c2nsc(=O)o2)s1 .
148 M⁻¹ s⁻¹

----------
IC50 for assorted compounds
system under test: α-chymotrypsin (Bos taurus)
Answer as a quantity: numeral, then unit.

Recorded IC50, per entry:
O=c1oc(-c2ccco2)ns1: 22.7 µM
CSc1sc(C)cc1-c1nsc(=O)o1: 0.064 µM
O=c1oc(-c2ccccn2)ns1: 16.6 µM
O=c1oc(-c2ccc([N+](=O)[O-])cc2)ns1: 2.08 µM
Cc1ccc(-c2nsc(=O)o2)cc1: 3.67 µM
O=c1oc(-c2cccc(F)c2)ns1: 2.67 µM
Cc1ccc(-c2nsc(=O)o2)s1: 8.02 µM

Now for the compound whose IC50 we want.
Name the recorded IC50 for Cc1cccc(-c2nsc(=O)o2)c1 .
15.8 µM

----------
kinact/KI for assorted compounds
system under test: Mtb PrcAB-OG (Mycobacterium tuberculosis, UniProt P9WHT9)
Construct: made in house; host or cells: E. coli
procedure summary: biochemical
Type: biochemical
details: read-out: kobs/[I] Mtb-OG
State just the number; it will be interpreted in M⁻¹ s⁻¹.

O=c1oc(-c2ccc([N+](=O)[O-])cc2)ns1: 598
O=c1oc(-c2ccccn2)ns1: 460

Now for the compound whose kinact/KI we want.
Name the recorded kinact/KI for O=c1oc(-c2cccc(F)c2)ns1 .
1060

----------
system under test: Mtb PrcAB-OG (Mycobacterium tuberculosis, UniProt P9WHT9)
Construct: made in house; host or cells: E. coli
procedure summary: biochemical
Type: biochemical
details: read-out: kobs/[I] Mtb-OG
kinact/KI for assorted compounds
Answer as a quantity: numeral, then unit.

Recorded kinact/KI, per entry:
Cc1cccc(-c2nsc(=O)o2)c1 [HT1118]: 133 M⁻¹ s⁻¹
COc1cccc(-c2nsc(=O)o2)c1 [HT1054]: 636 M⁻¹ s⁻¹

Now for the compound whose kinact/KI we want.
Name the recorded kinact/KI for O=c1oc(-c2cccc([N+](=O)[O-])c2)ns1 [HT1042] .
729 M⁻¹ s⁻¹
